// provenance: patent US20140288071A1

# pIC50 per entry for human notum pectinacetyltransferase (Homo sapiens)
pIC50: −log10 of the molar value.

1) Cc1c(C(C)C)sc2ncnc(SCC(=O)O)c12 ... > 7.30
2) Cc1sc2ncnc(SCC(=O)NCCc3cn[nH]c3)c2c1Cl ... > 7.30
3) Cc1sc2ncnc(SCC(=O)NCC#N)c2c1Cl ... > 7.60
4) Cc1c(Cl)sc2c(SCC(=O)NCC#N)ncnc12 ... > 7.60
5) Cc1ccc(S(=O)(=O)NC(=O)CSc2ncnc3sc(C)c(C)c23)nc1 ... > 7.00
6) CC(C)c1sc2ncnc(SCC(=O)O)c2c1Br ... > 7.60
7) CCNC(=O)CSc1ncnc2c(C)c(Cl)sc12 ... > 7.60
8) Cc1sc2ncnc(SCC(=O)OC(C)C)c2c1C ... > 7.60
9) CCCc1sc2ncnc(SCC(=O)O)c2c1Cl ... > 7.60
10) Cc1sc2ncnc(SCC(=O)NCCN3CCOCC3)c2c1Cl ... > 7.60

I have 8 compounds here; please give me pIC50 for each one.
1. Cc1sc2ncnc(SCC(=O)O)c2c1Br
2. Cc1csc2ncnc(SCC(=O)O)c12
3. CCCOC(=O)CSc1ncnc2sc(C)c(C)c12
4. Cc1sc2ncnc(SCC(=O)O)c2c1C1CC1
5. CC(C)c1sc2ncnc(SCC(=O)O)c2c1Cl
6. Cc1sc2c(SCC(=O)O)ncnc2c1C1CC1
7. Cc1csc(CCNC(=O)CSc2ncnc3sc(C)c(Cl)c23)n1
8. Cc1c(Br)sc2ncnc(SCC(=O)O)c12

1. > 7.60
2. > 7.00
3. > 7.60
4. > 7.60
5. > 7.60
6. > 7.60
7. > 7.60
8. > 7.60

For each of the items listed, what is its pIC50?
1. COC(=O)CSc1ncnc2c(C3CC3)c(Cl)sc12
2. Cc1sc2ncnc(SCC(=O)NC#N)c2c1C
3. Cc1sc2ncnc(SCC(=O)NCc3ccncc3)c2c1Cl
4. Cc1cc(NC(=O)CSc2ncnc3sc(C)c(C)c23)no1
5. Cc1sc2ncnc(SCC(N)=O)c2c1C
6. CCS(=O)(=O)NC(=O)CSc1ncnc2sc(C)c(C)c12
7. COCCNC(=O)CSc1ncnc2c(C)c(Cl)sc12

1: > 7.60; 2: > 7.60; 3: > 7.60; 4: > 7.60; 5: > 7.60; 6: > 7.60; 7: > 7.60
